biological target: human HSD17B13 (Homo sapiens, UniProt Q7Z5P4); experiment: Substrate screening of steroid and bioactive lipid libraries against purified recombinant HSD17B13 (NADH-linked luciferase assay); assay type: biochemical; settings: Steroid Library, 50 μM steroid, normalized to 50 μM estradiol after subtraction of 5% DMSO
reported_property: HSD17B13 Enzymatic Activity Percent Estradiol Control (%)
# output: bare number, implied unit %

Can you share its HSD17B13 Enzymatic Activity Percent Estradiol Control? I mean this molecule: C[C@]12CC[C@@H](O)C[C@@H]1CC[C@@H]1[C@@H]2CC[C@]2(C)C(=O)[C@H](O)C[C@@H]12 [16alpha-Hydroxyandrosterone]
1.07

How about C[C@]12CC[C@@H](O)C[C@H]1CC[C@@H]1[C@@H]2C(=O)C[C@]2(C)C(=O)CC[C@@H]12 [11-oxo-etiocholanolone] ?
0.62

Check CC[C@H](CC[C@@H](C)[C@H]1CC[C@H]2[C@@H]3CC=C4C[C@@H](O)CC[C@]4(C)[C@H]3CC[C@]12C)C(C)C [Beta-sitosterol] too.
0.14

Next molecule: C[C@]12CCC(=O)C[C@@H]1CC[C@@H]1[C@@H]2CC[C@]2(C)[C@@H](OC(=O)c3ccccc3)CC[C@@H]12 [Androstanolone 17-benzoate]
0.99

Param item: C[C@]12CCC(=O)C=C1CC[C@@H]1[C@@H]2[C@@H](O)C[C@@]2(C)[C@H]1CC[C@]2(O)C(=O)CO [Cortisol]
−2.10

Also check C[C@]12CC[C@H](O)C[C@@H]1CC[C@@H]1[C@@H]2CC[C@]2(C)[C@@H](O)CC[C@@H]12 [5alpha-androstane-3beta,17beta-diol]
4.16

Please give the result for C[C@]12CC[C@@H]3c4ccc(O)cc4CC[C@H]3[C@@H]1CCC2=O [Estrone] too.
0.45

How about CC(=O)OC1=CC[C@H]2[C@@H]3CC[C@H]4CC=CC[C@]4(C)[C@H]3CC[C@]12C [5alpha-Androsta-2,16-dien-17-yl acetate] ?
0.65

Can you check C=CCc1ccc(O)c(-c2ccc(O)c(CC=C)c2)c1 [Honokiol] next?
−1.88

Then this molecule: C[C@]12CC[C@@H](O)C[C@@H]1CC[C@@H]1[C@@H]2CC[C@]2(C)C(=O)CC[C@@H]12 [Androsterone]
−0.04

====

target: human HSD17B13 (Homo sapiens, UniProt Q7Z5P4); assay: Substrate screening of steroid and bioactive lipid libraries against purified recombinant HSD17B13 (NADH-linked luciferase assay); type: biochemical; conditions: Bioactive Lipid Library, 5 μM bioactive lipid (Estradiol Control 50 μM), 500 μM NAD+, 100 ng enzyme, 3 hours at 23° C.
Where a name gives a salt, the structure may show the parent alone.
Exercise: for every item that follows, state its recorded HSD17B13 Enzymatic Activity Relative Light Units.
Answer as a quantity: numeral, then unit.

Tell me reported HSD17B13 Enzymatic Activity Relative Light Units for O=P(O)(O)OC1[C@@H](OP(=O)(O)O)[C@H](O)C(O)[C@@H](O)[C@H]1OP(=O)(O)O (stereo partly drawn) [(sodium salt)] , tested with human HSD17B13 (Homo sapiens, UniProt Q7Z5P4).
400520 RLU

Same for CC/C=C\C/C=C\C=C\[C@H](O)C/C=C\C/C=C\CCCC(=O)O [11(R)-HEPE]
940920 RLU

How about this compound: CCCCC[C@H](O)/C=C/C=C\C/C=C\C/C=C\CCCC(=O)O [15(S)-HETE]
1107240 RLU

Repeat for the following compound: CCCCC[C@H](O)/C=C/[C@H]1OC(O)C[C@H](O)[C@@H]1CCCCC(=O)O (stereo partly drawn)
364840 RLU

Same again, this time with CCCCC[C@H](O)/C=C/C=C\C=C\[C@@H](O)C/C=C\CCCC(=O)O [8(S),15(S)-DiHETE]
410440 RLU

Next compound up: CC/C=C\C/C=C\C/C=C\C/C=C\C=C\[C@@H](O)CCCC(=O)O [5(S)-HEPE]
429120 RLU

Please do the same for CC/C=C\C/C=C\C/C=C\C=C\C(O)C/C=C\C/C=C\CCC(=O)O (racemic) [(±)10-HDHA] as well.
801680 RLU

# repeat for CCCCC[C@H](O)/C=C/C=C\C=C\C=C\[C@@H](O)[C@@H](O)CCCC(=O)O
352680 RLU

# repeat for CC[C@H]1O[C@H]1C/C=C\C/C=C\C/C=C\C/C=C\C/C=C\CCC(=O)O (racemic) [(±)19(20)-EpDPA]
300600 RLU

Please answer likewise for CCCCC/C=C\C/C=C\C[C@@H](O)/C=C/C=C\CCCC(=O)O [9(R)-HETE]
1656640 RLU

Cool, now CCCCCCCC[C@@H](O)C=CC=CC=C[C@@H](O)CCCC(=O)O [12-epi Leukotriene B3]
481880 RLU

Then O=P(O)(O)OC1[C@@H](OP(=O)(O)O)[C@H](OP(=O)(O)O)C(O)[C@H](OP(=O)(O)O)[C@H]1OP(=O)(O)O (stereo partly drawn) [(sodium salt)] ?
398080 RLU

What do you get for CCCCC/C=C\C/C=C\C=C\[C@@H](O)CCCCCCC(=O)O [8(S)-HETrE] ?
412960 RLU

Can you check CCCCC[C@H](O)/C=C/[C@H]1C(=O)CC(=O)[C@@H]1C/C=C\CCCC(=O)O next?
155600 RLU

Ok, now CCCCC/C=C\C=C\C(=O)CCCCCCCC(=O)O
359280 RLU

What do you get for CCCCC[C@H](O)/C=C/C=C\CCCCCCCCCC(=O)O [15(S)-HEDE] ?
1060680 RLU

Same thing, different compound: CCCCC[C@H](O)/C=C/C=C\C/C=C\C/C=C\CCCC(=O)NCCO [15(S)-HETE Ethanolamide]
535680 RLU

Try this compound too: CCCCC[C@@H](/C=C/C=C\CCCCCCCCCC(=O)O)OO [15(S)-HpEDE]
232720 RLU

Next up: C[C@@H](O)CCC[C@H](O)/C=C/[C@H]1[C@H](O)CC(=O)[C@@H]1CCCCCCC(=O)O [19(R)-hydroxy Prostaglandin E1]
333160 RLU

Record: CCCCC[C@H](O)/C=C/[C@@H]1[C@H]2C/C(=C/CCCC(=O)O)C[C@H]2C[C@H]1O
380280 RLU

Likewise for CCCCC[C@H](O)/C=C/[C@H]1CC2CC(C2)[C@@H]1C/C=C\CCCC(=O)O ?
309000 RLU

// same read-out, input: CCCCC/C=C\C/C=C\C/C=C\C=C\[C@@H]1CCCC(=O)O1 [5(S)-HETE lactone]
288400 RLU

Then what about the compound CC/C=C\CC1OC1C/C=C\C/C=C\C/C=C\CCCC(=O)O (racemic) [(±)14(15)-EpETE] ?
306600 RLU

Please do the same for CCCCC/C=C\C\C=C/C=C/C=C/[C@@H]1O[C@H]1CCCC(=O)OC as well.
463120 RLU

====

Molecular target: human HSD17B13 (Homo sapiens, UniProt Q7Z5P4)
Sequence (Q7Z5P4 20-300): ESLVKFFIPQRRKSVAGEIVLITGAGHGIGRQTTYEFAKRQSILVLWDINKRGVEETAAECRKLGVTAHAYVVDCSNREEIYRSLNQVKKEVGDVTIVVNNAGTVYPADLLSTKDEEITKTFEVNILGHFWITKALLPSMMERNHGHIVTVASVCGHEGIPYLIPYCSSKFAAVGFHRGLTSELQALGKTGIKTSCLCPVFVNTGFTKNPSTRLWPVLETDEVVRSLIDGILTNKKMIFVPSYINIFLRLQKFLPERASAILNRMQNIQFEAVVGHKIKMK
Assay: Substrate screening of steroid and bioactive lipid libraries against purified recombinant HSD17B13 (NADH-linked luciferase assay)
Type: biochemical
Conditions: Bioactive Lipid Library, 5 μM bioactive lipid, normalized to 50 μM estradiol after subtraction of 5% DMSO
Where a name gives a salt, the structure may show the parent alone.
reported_property: HSD17B13 Enzymatic Activity Percent Estradiol Control

// query HSD17B13 Enzymatic Activity Percent Estradiol Control value for entry CCCCC[C@H](O)/C=C/C=C\CCCCCCCC(=O)O [13(S)-HODE]
37.62%

Next record, please: CC/C=C\C/C=C\C=C\C(O)C/C=C\C/C=C\C/C=C\CCC(=O)O (racemic) [(±)13-HDHA]
64.54%

Next up: CCCCC/C=C\C=C\C(O)C/C=C\C/C=C\CCCC(=O)O (racemic) [(±)11-HETE]
35.76%

Another compound to check: O=P(O)(O)O[C@@H]1[C@H](O)[C@H](O)[C@@H](OP(=O)(O)O)[C@H](OP(=O)(O)O)[C@H]1O [(potassium salt)]
2.52%

And the next one, CCC1OC1C/C=C\C/C=C\C/C=C\C/C=C\CCCC(=O)O (racemic) [(±)17(18)-EpETE] ?
2.19%

// query: CN(C)C(=O)CCSC(SCCC(=O)O)c1cccc(/C=C/c2ccc3ccc(Cl)cc3n2)c1 (stereo not shown) [MK-571]
−0.12%

Then this compound: CC/C=C\C[C@@H](/C=C/C=C\C/C=C\C/C=C\CCCC(=O)O)OO [15(S)-HpEPE]
2.18%

Another compound to look at: CCCCC[C@H](O)/C=C/[C@@H]1[C@@H](CCCCCCC(=O)O)[C@@H]2C[C@H]1OO2 [Prostaglandin H1]
−10.85%

Same again, this time with CCCCCC(O)C(O)C/C=C\C/C=C\C/C=C\CCCC(=O)O (racemic) [(±)14(15)-DiHET]
5.93%

Further, for CC/C=C\C/C=C\C/C=C\C/C=C\C=C\[C@@H](O)CCCC(=O)O [5(S)-HEPE] ?
10.58%

// next record CCCCC/C=C\C/C=C\C/C=C\CC(O)C1CCCC(=O)O1 (racemic) [(±)5(6)-DiHET lactone]
6.50%

What do we get for CCCCC[C@H](O)/C=C/[C@@H]1[C@@H](C/C=C\CCCC(=O)NCCCCCNC(=O)CCCC[C@H]2SC[C@@H]3NC(=O)N[C@@H]32)[C@@H](O)C[C@H]1O [Prostaglandin F2α-biotin] ?
1.14%

Same thing, different compound: CC/C=C\C[C@H](O)/C=C/[C@H]1C(=O)C[C@H](O)[C@@H]1C/C=C\CCCC(=O)O [Prostaglandin D3]
1.25%
